Molecular target: CDK2A (Homo sapiens, UniProt P24941)
Construct: purchased in-house DSF kinase panel (SGC-style construct names; the trailing letter is the construct ID)
Assay: DSF Tm panel
Type: binding
Settings: 10 μM compound
Property: ΔTm at 10 µM; scope: individual molecules
measured-endpoint: ΔTm at 10 µM (°C)

molecule: COc1cccc(CNC(=O)Nc2ccc3cc2OCCOCCNc2ccn4ncc-3c4n2)c1 [compound 30]
test-target: CDK2A (Homo sapiens, UniProt P24941)
unit-string: °C
reported-value: 2.5
//
molecule: Cc1cc(Cl)ccc1CNC(=O)Nc1ccc2cc1OCCOCCNc1ccn3ncc-2c3n1 [compound 23]
test-target: CDK2A (Homo sapiens, UniProt P24941)
unit-string: °C
reported-value: 3.1
//
molecule: COc1ccc(CNC(=O)Nc2ccc3cc2OCCOCCNc2ccn4ncc-3c4n2)cc1 [compound 31]
test-target: CDK2A (Homo sapiens, UniProt P24941)
unit-string: °C
reported-value: 3.3

###

Biological target: SLK (Homo sapiens)
Experiment: DSF Tm panel
Type: binding
Design: purchased in-house DSF kinase panel (SGC-style construct names; the trailing letter is the construct ID)
Settings: 10 μM compound
Property: ΔTm at 10 µM; scope: individual compounds
measured-endpoint: ΔTm at 10 µM (°C)

compound: O=C(NCc1ccccc1C(F)(F)F)Nc1ccc2cc1OCCOCCNc1ccn3ncc-2c3n1 [compound 27]
measured-endpoint: ΔTm at 10 µM
reported-value: 4.2
//
compound: Cc1cc(Cl)ccc1CNC(=O)Nc1ccc2cc1OCCOCCNc1ccn3ncc-2c3n1 [compound 23]
measured-endpoint: ΔTm at 10 µM
reported-value: 3.5
//
compound: Cc1cc(F)ccc1CNC(=O)Nc1ccc2cc1OCCOCCNc1ccn3ncc-2c3n1 [compound 22]
measured-endpoint: ΔTm at 10 µM
reported-value: 3.7
